Ref: the Human Domainome abundance scans (Beltran et al. 2025)

B1: Activity-dependent neuroprotector homeobox protein, residues 770 to 810; numbered along this chain, Q9H2P0 (parent)
chain: FLTKYFNKQPYPTRREIEKLAASLWLWKSDIASHFSNKRKK

- Variants of: B1
- testProtocol: abundance fitness (aPCA) (normalised: wild type 0, dead -1); higher = more abundant; growth selection in yeast, the domain comes from the species named
- conditionsUsed: Homo sapiens
readoutName: abundance fitness
The answer should be a number; do not append a unit.

Examples from the recorded data:
Prompt line: Name the reported abundance fitness value associated with the variant FLTKYFNKQPYPTRREIEKLAASLWLWASDIASHFSNKRKK
Response line: 0.333

Prompt line: Name the reported abundance fitness value associated with the variant FLTKYFNKQPYPTRREIEKLAASLWLWKSDIASHFSNKRWK
Response line: -0.137

Prompt line: Name the reported abundance fitness value associated with the variant FLAKYFNKQPYPTRREIEKLAASLWLWKSDIASHFSNKRKK
Response line: -0.303

Kindly review the next variant as well.
Prompt line: Name the reported abundance fitness value associated with the variant FLTKYFYKQPYPTRREIEKLAASLWLWKSDIASHFSNKRKK
Response line: -0.712
